Data origin: patent US9676773B2

Molecular target: purified recombinant human JAK1 protein (Homo sapiens, UniProt P23458)
Sequence (P23458 whole entry): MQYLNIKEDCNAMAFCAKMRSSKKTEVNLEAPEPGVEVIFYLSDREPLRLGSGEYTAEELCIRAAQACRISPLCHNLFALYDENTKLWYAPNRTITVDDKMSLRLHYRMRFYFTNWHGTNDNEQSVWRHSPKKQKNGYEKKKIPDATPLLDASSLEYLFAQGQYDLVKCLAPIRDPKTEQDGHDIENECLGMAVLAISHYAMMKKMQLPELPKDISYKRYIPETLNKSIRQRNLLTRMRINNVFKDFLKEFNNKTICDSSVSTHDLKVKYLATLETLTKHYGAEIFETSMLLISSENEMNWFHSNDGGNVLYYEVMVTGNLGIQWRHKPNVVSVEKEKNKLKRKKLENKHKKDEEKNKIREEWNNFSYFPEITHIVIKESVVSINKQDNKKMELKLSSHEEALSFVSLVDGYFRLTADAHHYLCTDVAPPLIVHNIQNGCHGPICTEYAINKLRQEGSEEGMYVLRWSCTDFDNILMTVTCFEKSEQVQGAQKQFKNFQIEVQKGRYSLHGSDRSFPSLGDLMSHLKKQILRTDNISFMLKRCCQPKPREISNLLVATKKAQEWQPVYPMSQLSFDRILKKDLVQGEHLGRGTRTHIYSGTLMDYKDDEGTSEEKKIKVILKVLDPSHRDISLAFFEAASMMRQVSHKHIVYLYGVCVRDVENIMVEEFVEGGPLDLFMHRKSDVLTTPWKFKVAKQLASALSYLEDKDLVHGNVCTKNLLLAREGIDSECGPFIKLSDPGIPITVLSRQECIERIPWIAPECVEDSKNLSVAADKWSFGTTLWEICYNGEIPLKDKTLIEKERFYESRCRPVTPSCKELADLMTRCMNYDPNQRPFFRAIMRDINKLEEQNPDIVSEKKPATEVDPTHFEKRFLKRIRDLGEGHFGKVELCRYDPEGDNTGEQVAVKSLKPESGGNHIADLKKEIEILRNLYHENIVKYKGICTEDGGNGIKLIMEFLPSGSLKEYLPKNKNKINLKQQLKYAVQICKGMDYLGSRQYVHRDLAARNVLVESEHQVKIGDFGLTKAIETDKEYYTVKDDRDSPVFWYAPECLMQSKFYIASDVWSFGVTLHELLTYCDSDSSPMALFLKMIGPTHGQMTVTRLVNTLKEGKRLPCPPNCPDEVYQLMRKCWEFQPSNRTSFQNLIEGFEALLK
Assay: Measurement of JAK1 kinase-inhibitory activity
Details: substrate peptide 1 μM, ATP 75 M (so in the source), 25° C., 120 minutes
endpoint: IC50 (µM)

1) C=CC(=O)NC1CCC=C(c2ccnc3[nH]cc(-c4cc(CO)co4)c23)C1 (stereo not shown) [Compound 14] :: 3.2
2) C=CC(=O)NC1CCC=C(c2ccnc3[nH]cc(-c4nnco4)c23)C1 (stereo not shown) [Compound 49] :: 3.4
3) C=CC(=O)NC1CCC=C(c2ccnc3[nH]cc(-c4ccc(CO)o4)c23)C1 (stereo not shown) [Compound 10] :: 1.9
4) C1=C(c2ccnc3[nH]ccc23)CCCC1 [Comparative Example 1, reference compound] :: 1.2
5) C=CC(=O)NC1CCC=C(c2c(C#N)cnc3[nH]cc(-c4ccco4)c23)C1 (stereo not shown) [Compound 45] :: 1.6

(1) C=CC(=O)NC1CCC=C(c2ccnc3[nH]cc(C4=CCOCC4)c23)C1 (stereo not shown) [Compound 31]
(2) C=CC(=O)NC1CCC=C(c2ccnc3[nH]cc(-c4ccccc4)c23)C1 (stereo not shown) [Compound 1]
(Q) Please tell me which of the two, 1 or 2 , has the higher reported IC50 value. # answer = label of selected item
(A) 1
(1: 7.7 µM, 2: 0.74 µM)
